- Tested target: T1, human DLL3 antigen (human, UniProt Q9NYJ7 27-492, limits assumed)
- T1 construct: also called immobilized human DLL3; recombinant human DLL3
- T1 sequence (looked up): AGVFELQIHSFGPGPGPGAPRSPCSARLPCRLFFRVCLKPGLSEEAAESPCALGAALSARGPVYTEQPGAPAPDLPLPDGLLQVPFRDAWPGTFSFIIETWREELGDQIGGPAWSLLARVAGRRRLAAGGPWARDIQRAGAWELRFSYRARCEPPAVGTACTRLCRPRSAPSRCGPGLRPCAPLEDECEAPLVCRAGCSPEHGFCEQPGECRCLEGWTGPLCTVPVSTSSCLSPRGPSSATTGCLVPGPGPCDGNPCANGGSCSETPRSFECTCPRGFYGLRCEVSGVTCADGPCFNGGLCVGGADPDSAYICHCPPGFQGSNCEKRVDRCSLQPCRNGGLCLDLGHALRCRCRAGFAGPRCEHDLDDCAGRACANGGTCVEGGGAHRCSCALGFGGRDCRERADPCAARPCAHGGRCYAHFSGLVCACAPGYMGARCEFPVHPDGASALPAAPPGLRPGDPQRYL
- Protocol description: ELISA or flow cytometry screen

Binder | binding result
SC16.25 (antibody, V domains shown, murine mAb) VH: QVTLKESGPGILQPSQTLSLTCSFSGFSLSTSGMGVGWIRQPSGEGLEWLTDIWWDDNKYYNPSLKSRLTISKDTSSNQVFLNITSVDTADTATYYCARRVNYYYDPYYAMDYWGQGTSVTVSS VL: QIVLTQSPAIMSASPGEKVTMTCSASSSVSYMHWYQQKSGTSPKRWIYDSSKLASGVPARFSGSGSGTSYSLTISSMEAEDAATYYCQQWSSNPLTFGAGTKLELK | binds
SC16.36 (antibody, V domains shown, murine mAb) VH: QVQLQQSGAELAKPGASVKMSCKASGYTFTTYWMHWVKQRPGQGLEWIGYINPSSGYTEYNQKFKDKATLTADKSSSTAYMQLSSLTSEDSSVYYCARKGSNRGFAYWGQGTLVTVS VL: ETTVTQSPASLSVTTGEKVTIRCITTPDIDDDMNWYQQKPGEPPNLLISEGNSLRPGVPSRFSSSGYGTNFVFTIENTLSEDVADYYCLQSDNMPFTFGSGTKLEIK | binds
SC16.81 (antibody, V domains shown, murine mAb) VH: QVQLKESGPVLVAPSQSLSITCTVSGFSLTSYGVHWVRQPPGKGLEWLGVIWAGGSTNYNSALMSRLSISKDNSKSQVFLKMNSLQTDDTAMYYCAKQGNFYAMDYWGQGTSVTVSS VL: QIVLTQSPAIMSASLGERVTLTCTASSSVSSSYLHWYQQKPGSSPKLWIYSTSNLASGVPTRFSGSGSGTSYSLRISSMEAEDAATYYCHQYNRSPLTFGAGTKLELK | binds
